target: Lipolase® 100L (Thermomyces lanuginosus, UniProt O59952); construct: purchased Sigma-Aldrich; assay: Lipase storage stability in liquid formulations at 37° C. (pNP-valerate activity); format: biochemical, Thermomyces lanuginosa; conditions: base formulation III. (Lipolase 0.2 wt%, tested compound 2.0 wt%); 7 d storage at 37° C.
In this section we review reported lipase activity, 7 d values for a set of compounds.
// return numeric value only (unit: %, not printed)

Please review the following examples before continuing.
CCOC(=O)CC(O)(CC(=O)OCC)C(=O)OCC [A.1, Triethylcitrate]; 96
O=C([O-])CC(O)(CC(=O)[O-])C(=O)[O-].[Na+].[Na+].[Na+] [B.2, citric acid trisodiumsalt, reference compound]; 80
O=C(O)CC(O)(CC(=O)O)C(=O)O [B.1, citric acid, reference compound]; 78
CCCOC(=O)CC(O)(CC(=O)OCCC)C(=O)OCCC [A.2, Tripropylcitrate]; 101
CCOC(=O)CC(CC(=O)OCC)(OC(C)=O)C(=O)OCC [A.5, Acetyltriethylcitrate]; 93
CCOC(=O)C(=O)OCC [B.3, diethyloxalate, reference compound]; 79

Then this compound:
Query :: # lookup: lipase activity, 7 d of CCOC(=O)CC(O)(CC(=O)O)C(=O)O (stereo not shown) [A.6, Monoethylcitrate]
Result :: 91

====

target: Lipolase® 100L (Thermomyces lanuginosus); construct: purchased Sigma-Aldrich; assay: Lipase storage stability in liquid formulations at 37° C. (pNP-valerate activity); assay type: biochemical, Thermomyces lanuginosa; details: base formulation III. (Lipolase 0.2 wt%, tested compound 2.0 wt%); 28 d storage at 37° C.
Experimental readout: lipase activity, 28 d (%)
Record the value in %, omitting the unit from your answer.

Query :: Which measured lipase activity, 28 d value corresponds to CCOC(=O)CC(O)(CC(=O)OCC)C(=O)OCC [A.1, Triethylcitrate] ?
Result :: 85

====

Recorded lipase activity, 21 d for the following compounds
molecular target: Lipolase® 100L (Thermomyces lanuginosus, UniProt O59952); construct: purchased Sigma-Aldrich; assay: Lipase storage stability in liquid formulations at 37° C. (pNP-valerate activity); type: biochemical, Thermomyces lanuginosa; details: base formulation V. (Lipolase 0.2 wt%, tested compound 2.0 wt%); 21 d storage at 37° C.
Answer format: number, then unit.

O=C(O)CC(O)(CC(=O)O)C(=O)O [B.1, citric acid, reference compound]; 63%
CCOC(=O)CC(O)(CC(=O)OCC)C(=O)OCC [A.1, Triethylcitrate]; 84%
CCCCOC(=O)CC(O)(CC(=O)OCCCC)C(=O)OCCCC [A.3, Tributylcitrate]; 83%

Query :: Can you share its lipase activity, 21 d? I mean this compound: O=C(CC(O)(CC(=O)OCc1ccccc1)C(=O)OCc1ccccc1)OCc1ccccc1 [A.8, Tribenzylcitrate]
Result :: 85%

Query :: For the compound shown here, CCOC(=O)C(=O)OCC [B.3, diethyloxalate, reference compound] , give the reported lipase activity, 21 d.
Result :: 65%

Query :: # lookup: lipase activity, 21 d of CCCCOC(=O)CC(CC(=O)OCCCC)(OC(C)=O)C(=O)OCCCC [A.4, Acetyltributylcitrate]
Result :: 85%

====

molecular target: Lipolase® 100L (Thermomyces lanuginosus, UniProt O59952); construct: purchased Sigma-Aldrich; assay: Lipase storage stability in liquid formulations at 37° C. (pNP-valerate activity); format: biochemical, Thermomyces lanuginosa; details: base formulation III. (Lipolase 0.2 wt%, tested compound 2.0 wt%); 3 d storage at 37° C.
Experimental readout: lipase activity, 3 d (%)
Provide the reading as a plain figure in %.

Solved entries:
O=C(O)CC(O)(CC(=O)O)C(=O)O [B.1, citric acid, reference compound]; 92
CCOC(=O)CC(O)(CC(=O)O)C(=O)O (stereo not shown) [A.6, Monoethylcitrate]; 96
CCOC(=O)CC(O)(CC(=O)OCC)C(=O)OCC [A.1, Triethylcitrate]; 98
O=C([O-])CC(O)(CC(=O)[O-])C(=O)[O-].[Na+].[Na+].[Na+] [B.2, citric acid trisodiumsalt, reference compound]; 94
CCOC(=O)C(=O)OCC [B.3, diethyloxalate, reference compound]; 94
CCOC(=O)CC(CC(=O)OCC)(OC(C)=O)C(=O)OCC [A.5, Acetyltriethylcitrate]; 95

Query :: Return reported lipase activity, 3 d; argument: CCCOC(=O)CC(O)(CC(=O)OCCC)C(=O)OCCC [A.2, Tripropylcitrate]
Result :: 100

====

target: Lipolase® 100L (Thermomyces lanuginosus, UniProt O59952); construct: purchased Sigma-Aldrich; test: Lipase storage stability in liquid formulations at 37° C. (pNP-valerate activity); format: biochemical, Thermomyces lanuginosa; details: base formulation I. (Lipolase 0.2 wt%, tested compound 2.5 wt%); 21 d storage at 37° C.
Experimental readout: lipase activity, 21 d
A complete answer gives the number and then names the unit.

O=C(O)CC(O)(CC(=O)O)C(=O)O [B.1, citric acid, reference compound]; 61%
CCOC(=O)C(=O)OCC [B.3, diethyloxalate, reference compound]; 54%
CCCOC(=O)CC(O)(CC(=O)OCCC)C(=O)OCCC [A.2, Tripropylcitrate]; 90%

Attention now turns to another entry.
Query :: Give the measured lipase activity, 21 d of CCCCOC(=O)CC(CC(=O)OCCCC)(OC(C)=O)C(=O)OCCCC [A.4, Acetyltributylcitrate] .
Result :: 88%

====

molecular target: Lipolase® 100L (Thermomyces lanuginosus); construct: purchased Sigma-Aldrich; experiment: Lipase storage stability in liquid formulations at 37° C. (pNP-valerate activity); assay type: biochemical, Thermomyces lanuginosa; conditions: base formulation I. (Lipolase 0.2 wt%, tested compound 2.5 wt%); T0; relative to 100% value of reference formulation at time 0
Experimental readout: lipase activity, T0 (%)
Numeric answer only, unit % assumed.

Known lipase activity, T0 results, listed for orientation:
CCOC(=O)CC(CC(=O)OCC)(OC(C)=O)C(=O)OCC [A.5, Acetyltriethylcitrate]; 97
O=C(O)CC(O)(CC(=O)O)C(=O)O [B.1, citric acid, reference compound]; 100
CCOC(=O)CC(O)(CC(=O)OCC)C(=O)OCC [A.1, Triethylcitrate]; 100
CCCOC(=O)CC(O)(CC(=O)OCCC)C(=O)OCCC [A.2, Tripropylcitrate]; 101
CC(=O)OCC(COC(C)=O)OC(C)=O [B.4, glyceroltriacetate (triacetine), reference compound]; 98

Query :: For CCCCOC(=O)CC(CC(=O)OCCCC)(OC(C)=O)C(=O)OCCCC [A.4, Acetyltributylcitrate] , what is its reported lipase activity, T0?
Result :: 102

Query :: Requested read-out: lipase activity, T0. Entry: CCOC(=O)C(=O)OCC [B.3, diethyloxalate, reference compound]
Result :: 97

Query :: Quick one: lipase activity, T0 of O=C([O-])CC(O)(CC(=O)[O-])C(=O)[O-].[Na+].[Na+].[Na+] [B.2, citric acid trisodiumsalt, reference compound] ?
Result :: 97

====

Molecular target: Lipolase® 100L (Thermomyces lanuginosus)
Construct: purchased Sigma-Aldrich
Sequence (O59952 23-291): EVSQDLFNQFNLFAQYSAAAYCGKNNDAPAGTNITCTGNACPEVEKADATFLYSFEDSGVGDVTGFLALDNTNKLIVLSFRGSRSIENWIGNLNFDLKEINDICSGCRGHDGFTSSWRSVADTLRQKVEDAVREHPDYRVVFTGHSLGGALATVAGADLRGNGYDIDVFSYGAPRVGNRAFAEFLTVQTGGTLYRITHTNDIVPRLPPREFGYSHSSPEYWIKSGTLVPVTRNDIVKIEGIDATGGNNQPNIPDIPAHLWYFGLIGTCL
Experiment: Lipase storage stability in liquid formulations at 37° C. (pNP-valerate activity)
Assay type: biochemical, Thermomyces lanuginosa
Conditions: base formulation III. (Lipolase 0.2 wt%, tested compound 2.0 wt%); T0; relative to 100% value of reference formulation at time 0
Measured lipase activity, T0 of individual entries
Reply with just the number (in %).

Worked cases, answers included:
CCOC(=O)CC(O)(CC(=O)OCC)C(=O)OCC [A.1, Triethylcitrate]; 100
CCOC(=O)CC(O)(CC(=O)O)C(=O)O (stereo not shown) [A.6, Monoethylcitrate]; 96

Query :: Recorded lipase activity, T0 for CCOC(=O)CC(CC(=O)OCC)(OC(C)=O)C(=O)OCC [A.5, Acetyltriethylcitrate] with Lipolase® 100L (Thermomyces lanuginosus), please?
Result :: 98

Query :: State its lipase activity, T0 on Lipolase® 100L (Thermomyces lanuginosus): CCCOC(=O)CC(O)(CC(=O)OCCC)C(=O)OCCC [A.2, Tripropylcitrate]
Result :: 102

Query :: Please provide the recorded lipase activity, T0 for O=C([O-])CC(O)(CC(=O)[O-])C(=O)[O-].[Na+].[Na+].[Na+] [B.2, citric acid trisodiumsalt, reference compound] , tested on Lipolase® 100L (Thermomyces lanuginosus).
Result :: 101

Query :: // map CCOC(=O)C(=O)OCC [B.3, diethyloxalate, reference compound] to recorded lipase activity, T0 (system: Lipolase® 100L (Thermomyces lanuginosus))
Result :: 98

Query :: Look up lipase activity, T0 with Lipolase® 100L (Thermomyces lanuginosus) for this compound: O=C(O)CC(O)(CC(=O)O)C(=O)O [B.1, citric acid, reference compound]
Result :: 102
